target: T1, murine PILRA, ectopically expressed on 293 cells (murine, UniProt Q2YFS3 32-302); experiment: flow cytometry, 293 cells expressing target
T1 construct: also called mA
T1 sequence (Q2YFS3 32-302): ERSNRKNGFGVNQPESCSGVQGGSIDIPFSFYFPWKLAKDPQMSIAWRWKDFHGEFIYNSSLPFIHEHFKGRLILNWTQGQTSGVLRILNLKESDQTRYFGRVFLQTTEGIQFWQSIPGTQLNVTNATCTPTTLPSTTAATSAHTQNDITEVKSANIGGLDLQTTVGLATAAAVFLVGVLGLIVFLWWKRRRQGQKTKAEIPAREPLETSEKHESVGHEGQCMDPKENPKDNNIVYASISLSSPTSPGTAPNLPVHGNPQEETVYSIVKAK
VALUE_TYPE: binding result

BINDER: A2 (antibody, V domains shown, phage campaign) VH: EVQLLESGGGLVKPGGSLRLSCAASGFTFSDYYMSWVRQAPGKGLEWVSSISIGGGGTYYADSVKGRFTISRDDSKNTLYLQMNSLRAEDTAVYYCASHGFGARKMDFWGQGTTVTVSS VL: DIQMTQSPSSLSASVGDRVTITCRASQSIRSYVNWYQQKPGKAPKLLIYDASNLETGVPSRFSGSGSGTDFTLTISSLQPEDFATYYCQQSYSPPITFGQGTKVEIK
VALUE_TYPE: binding result
RESULT: no binding

BINDER: E7 (antibody, V domains shown, phage campaign) VH: EVQLLESGGGLVKPGGSLRLSCAASGFTFSSYWMSWVRQAPGKGLEWVSAISGSGGSTYYADSVKGRFTISRDDSKNTLYLQMNSLKTEDTAVYYCARHEEVTMVRGVIFAGGITNWGQGTTVTVSS VL: EIVMTQSPATLSVSPGERATLSCRASESVTSSYLAWYQQKPGQAPRLLIYGASTRATGIPARFSGSGSGTEFTLTISSLQSEDFAVYYCQQYGSSPLTFGGGTKVEIK
VALUE_TYPE: binding result
RESULT: no binding
